This collection of values is drawn from paper PMC3463587.

# Tested on: HepG2 cells
# experimentDescription: MTT cell proliferation assay, HepG2
# Type: cell-based
# reportedConditions: Homo sapiens, 48 hr
Record form. Attribute: IC50. Fill in for each entry.
Just the number in µM, nothing appended.

Write down the reported IC50 of c1ccc(CCCn2c3ccccc3c3cc[n+](Cc4ccccc4)cc32)cc1 , test system: HepG2 cells.
12.5

Param readout = IC50; param system = HepG2 cells; param query = Clc1cccc(Cn2c3ccccc3c3cc[n+](Cc4ccccc4)cc32)c1 ; response: value
18.8

Query the reported IC50 for HepG2 cells; item: Cc1c2c(cc[n+]1Cc1ccccc1)c1ccc(OCc3ccccc3)cc1n2Cc1ccccc1
10.7

Which IC50 is reported with HepG2 cells for this entry: Cc1c2c(cc[n+]1Cc1ccccc1)c1ccc(OCc3cccc(Cl)c3)cc1n2CCCc1ccccc1 ?
2.59

Recorded IC50 for Fc1ccc(C[n+]2ccc3c4ccccc4n(Cc4cccc(Cl)c4)c3c2)cc1 with HepG2 cells, please?
10.4

# get_value(readout= IC50, system= HepG2 cells) for Fc1ccc(Cn2c3ccccc3c3cc[n+](Cc4ccccc4)c(Cc4ccccc4)c32)cc1
4.01

Query IC50 on HepG2 cells for COc1ccc2c3ccnc(C)c3n(Cc3cccc(Cl)c3)c2c1
68.5

So what IC50 did Clc1cccc(C[n+]2ccc3c4ccccc4n(CCCc4ccccc4)c3c2)c1 get with HepG2 cells?
5.08

What value of IC50 on HepG2 cells does Cc1c2c(cc[n+]1Cc1ccccc1)c1ccc(OCc3ccc(F)cc3)cc1n2CCCc1ccccc1 have?
2.24

Test system HepG2 cells; read-out IC50; what value for Clc1cccc(Cn2c3ccccc3c3cc[n+](Cc4cccc(Cl)c4)cc32)c1 ?
11.2

Report IC50 for Fc1ccc(C[n+]2ccc3c4ccccc4n(CCCc4ccccc4)c3c2)cc1 tested on HepG2 cells.
7.37

====

# Test system: MRC5 cells
# reportedConditions: read-out: IC50 MRC5; MTT, 48 hr, non-cancer cells
observable: pIC50
Formally, pIC50 is defined as -log10 of the concentration c, with c in mol/L.

Bench note: what pIC50 did Cc1c2c(cc[n+]1Cc1ccccc1)c1ccc(OCc3ccccc3)cc1n2Cc1ccccc1 show?
5.51

====

Please provide measured IC50 for the entries that follow.
# Test system: MRC5 cells
# experimentDescription: cells
# reportedConditions: Homo sapiens, MRC5, 48 h, read-out: IC50 MRC5, MTT, 48 hr, non-cancer cells
Please reply with the bare figure in µM and do not write the unit itself.

Checklist item: IC50 tested on MRC5 cells, entry Cc1c2c(cc[n+]1Cc1ccccc1)c1ccc(OCc3ccc(F)cc3)cc1n2CCCc1ccccc1 , value?
4.73

Under MRC5 cells: IC50 value of Cc1c2c(cc[n+]1Cc1ccccc1)c1ccc(OCc3ccccc3)cc1n2Cc1ccccc1 ?
3.03

====

Measured pIC50 on PLK2 (Homo sapiens, UniProt Q9NYY3) follows.
Sequence (Q9NYY3 whole entry, species assumed): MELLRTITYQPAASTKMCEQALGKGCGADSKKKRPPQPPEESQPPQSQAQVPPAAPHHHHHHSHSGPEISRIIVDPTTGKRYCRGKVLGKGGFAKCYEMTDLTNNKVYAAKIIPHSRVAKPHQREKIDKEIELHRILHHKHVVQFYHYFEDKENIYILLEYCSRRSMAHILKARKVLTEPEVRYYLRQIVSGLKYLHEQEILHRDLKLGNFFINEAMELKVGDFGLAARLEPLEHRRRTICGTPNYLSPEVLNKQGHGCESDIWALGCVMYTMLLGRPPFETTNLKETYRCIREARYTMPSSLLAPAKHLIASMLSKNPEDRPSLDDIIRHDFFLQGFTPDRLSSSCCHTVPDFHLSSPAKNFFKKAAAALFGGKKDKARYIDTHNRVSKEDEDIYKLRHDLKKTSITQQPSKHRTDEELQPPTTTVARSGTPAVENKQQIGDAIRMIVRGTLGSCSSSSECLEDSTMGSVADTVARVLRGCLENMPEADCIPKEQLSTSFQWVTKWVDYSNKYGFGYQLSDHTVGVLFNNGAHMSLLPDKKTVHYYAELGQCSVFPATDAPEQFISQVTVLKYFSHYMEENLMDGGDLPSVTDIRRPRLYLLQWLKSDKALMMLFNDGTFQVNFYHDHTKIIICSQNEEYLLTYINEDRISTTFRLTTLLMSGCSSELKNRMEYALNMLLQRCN
By convention, pIC50 is the negative base-10 log of a molar concentration.

Returns the measured pIC50 for the input compound. Input: Cc1c2c(cc[n+]1Cc1ccccc1)c1ccc(OCc3ccccc3)cc1n2Cc1ccccc1 [DH287]
5.37

What value of pIC50 has been recorded for this entry: Cc1c2c(cc[n+]1Cc1ccccc1)c1ccc(OCc3ccc(F)cc3)cc1n2CCCc1ccccc1 [DH281]
5.42

====

# targetOfAssay: CDK2/cyclinE(h) (Homo sapiens)
# experimentDescription: In vitro kinase assay CDK2/cyclinE (33P-ATP)
Kindly state IC50 for each of the entries shown.

Consider the compound Cc1c2c(cc[n+]1Cc1ccccc1)c1ccc(OCc3ccccc3)cc1n2Cc1ccccc1 [DH287] and give its measured IC50.
> 100 µM

Please report the recorded IC50 for Cc1c2c(cc[n+]1Cc1ccccc1)c1ccc(OCc3ccc(F)cc3)cc1n2CCCc1ccccc1 [DH281] .
> 100 µM

====

# targetOfAssay: CDK1/cyclinB(h) (Homo sapiens)
# Sequence (P06493 whole entry): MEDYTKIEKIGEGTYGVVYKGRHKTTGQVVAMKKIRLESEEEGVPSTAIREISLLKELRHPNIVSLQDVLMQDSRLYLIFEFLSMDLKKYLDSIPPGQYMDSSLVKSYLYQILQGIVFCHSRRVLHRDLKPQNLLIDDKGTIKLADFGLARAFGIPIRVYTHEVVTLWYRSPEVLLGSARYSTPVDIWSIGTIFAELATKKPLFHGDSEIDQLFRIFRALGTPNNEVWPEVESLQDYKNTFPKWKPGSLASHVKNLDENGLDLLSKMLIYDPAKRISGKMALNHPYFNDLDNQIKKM
# Sequence (P14635 whole entry partner): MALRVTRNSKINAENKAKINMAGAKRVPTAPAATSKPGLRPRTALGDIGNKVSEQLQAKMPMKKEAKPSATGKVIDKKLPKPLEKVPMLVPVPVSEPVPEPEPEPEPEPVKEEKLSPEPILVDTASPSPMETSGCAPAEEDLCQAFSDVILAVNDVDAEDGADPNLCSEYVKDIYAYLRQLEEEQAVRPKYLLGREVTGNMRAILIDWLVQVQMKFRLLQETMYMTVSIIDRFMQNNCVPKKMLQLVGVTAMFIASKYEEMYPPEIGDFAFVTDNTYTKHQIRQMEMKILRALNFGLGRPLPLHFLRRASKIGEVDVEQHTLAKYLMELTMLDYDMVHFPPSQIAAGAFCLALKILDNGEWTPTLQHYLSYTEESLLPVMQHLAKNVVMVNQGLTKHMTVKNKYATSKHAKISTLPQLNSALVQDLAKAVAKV
# experimentDescription: In vitro kinase assay CDK1/cyclinB (33P-ATP)
observable: IC50

Item Cc1c2c(cc[n+]1Cc1ccccc1)c1ccc(OCc3ccccc3)cc1n2Cc1ccccc1 has what recorded IC50?
39.4 µM

Which measured IC50 value corresponds to Cc1c2c(cc[n+]1Cc1ccccc1)c1ccc(OCc3ccc(F)cc3)cc1n2CCCc1ccccc1 ?
42.1 µM

====

# System: HepG2 cells
# experimentDescription: MTT cell proliferation assay, HepG2
# Format: cell-based
# reportedConditions: Homo sapiens, 48 hr
# Text: BI2536 was purchased from Selleck (Selleck, USA).
pIC50: −log10 of the molar value.
observable: pIC50

Query (compound): Cc1nccc2c3ccc(OCc4cccc(Cl)c4)cc3n(CCCc3ccccc3)c12 ; field requested: pIC50
< 4.00

Need pIC50, item Cc1nccc2c3ccc(OCc4ccccc4)cc3n(Cc3ccccc3)c12
< 4.00

# lookup: pIC50 of Cc1nccc2c3ccc(OCc4ccc(F)cc4)cc3n(CCCc3ccccc3)c12
< 4.00

Need pIC50 of CCCCn1c2ccccc2c2cc(C(=O)NCCO)nc(C)c21 , thanks.
< 3.82
